molecular target: Serine/threonine-protein kinase pim-1 (Homo sapiens); test: Inhibition of recombinant PIM1 (unknown origin)
Sequence (P11309 whole entry): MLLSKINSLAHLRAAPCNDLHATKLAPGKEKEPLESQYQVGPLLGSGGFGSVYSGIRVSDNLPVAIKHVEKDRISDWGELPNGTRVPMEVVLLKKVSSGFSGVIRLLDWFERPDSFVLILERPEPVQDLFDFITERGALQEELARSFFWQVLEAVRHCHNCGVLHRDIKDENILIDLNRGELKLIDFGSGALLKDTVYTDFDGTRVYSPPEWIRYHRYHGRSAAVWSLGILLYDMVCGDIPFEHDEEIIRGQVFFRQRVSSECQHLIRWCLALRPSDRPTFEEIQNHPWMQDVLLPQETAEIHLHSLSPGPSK
measurement-name: pIC50
Entry type: numeric. Quantity: pIC50, the -log10 of concentration in molar units.

Tested system Serine/threonine-protein kinase pim-1 (Homo sapiens); pIC50 recorded for `O=C1c2ccccc2-c2n[nH]c3cccc1c23` was 5.48

====

system: PC-3; experiment: Antiproliferative activity against human PC-3 cells assessed as inhibition of cell growth incubated for 72 hrs by celltiter-glo assay; format: functional, cell-based; conditions: PC-3, 72 h
measurement-name: IC50 (µM)
The response must be a number in µM with no trailing unit.

Per the record, `CCc1cccc(CC)c1NC(=O)c1nn(C)c2c1CCc1cnc(Nc3ccc(C(=O)NC4CCN(C)CC4)cc3OC(F)(F)F)nc1-2` has IC50 of 1.99
